# ASSAY SUMMARY: AUClast in dog at 2.5 mg/kg, po by LC-MS method
# Format: ADME, organism-based, Canis lupus familiaris
# Parameters: dose 2.5 mg/kg, route oral, time 0 - last
# CONDITION: in vivo
ATTRIBUTE MEASURED: AUC(0-t) (ng·h/mL)
Just the number in ng·h/mL, nothing appended.

Ask: Return reported AUC(0-t). Input molecule: `COC(=O)N[C@H](C(=O)N1CCC[C@H]1c1nc2cc([C@H]3CC[C@H](c4cc5nc([C@@H]6CCCN6C(=O)[C@@H](NC(=O)OC)[C@@H](C)OC)[nH]c5cc4F)N3c3cc(F)c(N4CCC(c5ccc(F)cc5)CC4)c(F)c3)c(F)cc2[nH]1)[C@@H](C)OC`
Result: 5990

====

# ASSAY SUMMARY: Tmax in mouse at 3 mg/kg, po by LC-MS method
# Format: ADME, organism-based
# CONDITION: in vivo
This listing pairs compounds with measured Tmax.
Just the number in h, nothing appended.

COC(=O)N[C@H](C(=O)N1CCC[C@H]1c1nc2cc([C@H]3CC[C@H](c4cc5nc([C@@H]6CCCN6C(=O)[C@@H](NC(=O)OC)C(C)C)[nH]c5cc4F)N3c3cc(F)c(N4CCC(c5ccccc5)CC4)c(F)c3)c(F)cc2[nH]1)C(C)C = 24
COC(=O)N[C@H](C(=O)N1CCC[C@H]1c1nc2cc([C@H]3CC[C@H](c4cc5nc([C@@H]6CCCN6C(=O)[C@@H](NC(=O)OC)[C@@H](C)OC)[nH]c5cc4F)N3c3cc(F)c(N4CCC(c5ccc(F)cc5)CC4)c(F)c3)c(F)cc2[nH]1)[C@@H](C)OC = 11
COC(=O)N[C@H](C(=O)N1CCC[C@H]1c1nc2cc(F)c([C@H]3CC[C@H](c4cc5[nH]c([C@@H]6CCCN6C(=O)[C@@H](NC(=O)OC)C(C)C)nc5cc4F)N3c3cc(F)c(N4CCC(c5ccc(F)cc5)CC4)c(F)c3)cc2[nH]1)C(C)C = 24

Ask: Return reported Tmax. Input compound: `COC(=O)N[C@H](C(=O)N1CCC[C@H]1C(=O)Nc1ccc([C@@H]2CC[C@@H](c3ccc(NC(=O)[C@@H]4CCCN4C(=O)[C@@H](NC(=O)OC)C(C)C)cc3)N2c2ccc(C(C)(C)C)cc2)cc1)C(C)C`
Result: 7

====

# ASSAY SUMMARY: Volume of distribution at steady state in mouse at 5 mg/kg, iv by LC-MS method
# Type: ADME, organism-based
# CONDITION: in vivo, read-out: Vdss
ATTRIBUTE MEASURED: Vd (L/kg)
Just the number in L/kg, nothing appended.

Ask: Return reported Vd. Input molecule: `COC(=O)N[C@H](C(=O)N1CCC[C@H]1c1nc2ccc([C@H]3CC[C@H](c4ccc5nc([C@@H]6CCCN6C(=O)[C@@H](NC(=O)OC)C(C)C)[nH]c5c4)N3c3ccc(C(C)(C)C)cc3)cc2[nH]1)C(C)C`
Result: 0.65

====

# Test system: Nonstructural protein 5A (Hepatitis C virus), Q5L478 [Y93N]
# Sequence (whole entry): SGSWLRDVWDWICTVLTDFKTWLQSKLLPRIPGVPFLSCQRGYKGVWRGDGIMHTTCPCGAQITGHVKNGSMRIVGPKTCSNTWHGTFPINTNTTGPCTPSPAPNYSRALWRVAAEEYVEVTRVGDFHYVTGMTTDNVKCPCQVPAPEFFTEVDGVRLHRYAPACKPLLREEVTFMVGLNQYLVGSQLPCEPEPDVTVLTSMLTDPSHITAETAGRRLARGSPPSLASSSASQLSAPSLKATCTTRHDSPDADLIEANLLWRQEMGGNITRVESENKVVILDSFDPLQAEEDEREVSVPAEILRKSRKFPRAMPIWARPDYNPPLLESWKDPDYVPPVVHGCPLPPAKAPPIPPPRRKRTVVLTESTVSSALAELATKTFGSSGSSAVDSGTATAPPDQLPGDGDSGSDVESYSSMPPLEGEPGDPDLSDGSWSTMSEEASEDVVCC
# ASSAY SUMMARY: Inhibition of NS5A Y93N mutant in HuH7 cell infected HCV genotype 1b Con1 assessed as decrease in viral replication after 4 days by luciferase reporter gene assay relative to wild type protein
# CONDITION: Hepatitis C virus (isolate Con1)
This listing pairs molecules with measured fold change (FC).
Form rule: numeric answer, no unit written next to it.

COC(=O)N[C@H](C(=O)N1CCC[C@H]1c1nc2cc(F)c([C@H]3CC[C@H](c4cc5[nH]c([C@@H]6CCCN6C(=O)[C@@H](NC(=O)OC)[C@@H](C)OC)nc5cc4F)N3c3cc(F)c(N4CCC(c5ccccc5)CC4)c(F)c3)cc2[nH]1)[C@@H](C)OC = 0.3

Ask: Return reported fold change (FC). Input molecule: `COC(=O)N[C@H](C(=O)N1CCC[C@H]1c1nc2cc([C@H]3CC[C@H](c4cc5nc([C@@H]6CCCN6C(=O)[C@@H](NC(=O)OC)[C@@H](C)OC)[nH]c5cc4F)N3c3cc(F)c(N4CCC(c5ccc(F)cc5)CC4)c(F)c3)c(F)cc2[nH]1)[C@@H](C)OC`
Result: 0.6

Ask: Return reported fold change (FC). Input molecule: `COC(=O)N[C@H](C(=O)N1CCC[C@H]1c1nc2cc(F)c([C@H]3CC[C@H](c4cc5[nH]c([C@@H]6CCCN6C(=O)[C@@H](NC(=O)OC)C(C)C)nc5cc4F)N3c3cc(F)c(N4CCC(c5ccccc5)CC4)c(F)c3)cc2[nH]1)C(C)C`
Result: 1

Ask: Return reported fold change (FC). Input molecule: `COC(=O)N[C@H](C(=O)N1CCC[C@H]1c1nc2ccc([C@H]3CC[C@H](c4ccc5nc([C@@H]6CCCN6C(=O)[C@@H](NC(=O)OC)C(C)C)[nH]c5c4)N3c3cc(F)c(N4CCC(c5ccccc5)CC4)c(F)c3)cc2[nH]1)C(C)C`
Result: 1

Ask: Return reported fold change (FC). Input molecule: `COC(=O)N[C@H](C(=O)N1CCC[C@H]1c1nc2ccc([C@H]3CC[C@H](c4ccc5nc([C@@H]6CCCN6C(=O)[C@@H](NC(=O)OC)C(C)C)[nH]c5c4)N3c3ccc(-c4ccccc4)cc3)cc2[nH]1)C(C)C`
Result: 1

====

# Tested on: Nonstructural protein 5A (Hepatitis C virus), Q5L478 [Y93N]
# ASSAY SUMMARY: Inhibition of NS5A Y93N mutant in HuH7 cell infected HCV genotype 1a H77 assessed as decrease in viral replication after 4 days by luciferase reporter gene assay relative to wild type protein
# CONDITION: Hepatitis C virus (isolate H77)
This listing pairs molecules with measured fold change (FC).
Form rule: numeric answer, no unit written next to it.

Worked set:
COC(=O)N[C@H](C(=O)N1CCC[C@H]1c1nc2cc([C@H]3CC[C@H](c4cc5nc([C@@H]6CCCN6C(=O)[C@@H](NC(=O)OC)[C@@H](C)OC)[nH]c5cc4F)N3c3cc(F)c(N4CCC(c5ccc(F)cc5)CC4)c(F)c3)c(F)cc2[nH]1)[C@@H](C)OC = 6.7
COC(=O)N[C@H](C(=O)N1CCC[C@H]1c1nc2cc([C@H]3CC[C@H](c4ccc5[nH]c([C@@H]6CCCN6C(=O)[C@@H](NC(=O)OC)C(C)C)nc5c4)N3c3cc(F)c(N4CCCCC4)c(F)c3)ccc2[nH]1)C(C)C = 510

Ask: Return reported fold change (FC). Input molecule: `COC(=O)N[C@H](C(=O)N1CCC[C@H]1c1nc2cc(F)c([C@H]3CC[C@H](c4cc5[nH]c([C@@H]6CCCN6C(=O)[C@@H](NC(=O)OC)[C@@H](C)OC)nc5cc4F)N3c3cc(F)c(N4CCC(c5ccccc5)CC4)c(F)c3)cc2[nH]1)[C@@H](C)OC`
Result: 5

Ask: Return reported fold change (FC). Input molecule: `COC(=O)N[C@H](C(=O)N1CCC[C@H]1c1nc2cc(F)c([C@H]3CC[C@H](c4cc5[nH]c([C@@H]6CCCN6C(=O)[C@@H](NC(=O)OC)C6CCOCC6)nc5cc4F)N3c3cc(F)c(N4CCC(c5ccc(F)cc5)CC4)c(F)c3)cc2[nH]1)C1CCOCC1`
Result: 2

====

# ASSAY SUMMARY: Oral bioavailability in monkey at 2.5 mg/kg by LC-MS method
# Type: ADME, organism-based, Macaca mulatta
# CONDITION: rhesus monkey, in vivo
ATTRIBUTE MEASURED: bioavailability (%)
Just the number in %, nothing appended.

Ask: Return reported bioavailability. Input molecule: `COC(=O)N[C@H](C(=O)N1CCC[C@H]1c1nc2cc([C@H]3CC[C@H](c4cc5nc([C@@H]6CCCN6C(=O)[C@@H](NC(=O)OC)[C@@H](C)OC)[nH]c5cc4F)N3c3cc(F)c(N4CCC(c5ccc(F)cc5)CC4)c(F)c3)c(F)cc2[nH]1)[C@@H](C)OC`
Result: 14.1
